FYI, the data here is from patent US20200031825A1.

# target-under-test: hSTING-AQ (Homo sapiens, UniProt Q86WV6, G230A/R293Q)
# Sequence (Q86WV6 whole entry G230A/H232R/R293Q): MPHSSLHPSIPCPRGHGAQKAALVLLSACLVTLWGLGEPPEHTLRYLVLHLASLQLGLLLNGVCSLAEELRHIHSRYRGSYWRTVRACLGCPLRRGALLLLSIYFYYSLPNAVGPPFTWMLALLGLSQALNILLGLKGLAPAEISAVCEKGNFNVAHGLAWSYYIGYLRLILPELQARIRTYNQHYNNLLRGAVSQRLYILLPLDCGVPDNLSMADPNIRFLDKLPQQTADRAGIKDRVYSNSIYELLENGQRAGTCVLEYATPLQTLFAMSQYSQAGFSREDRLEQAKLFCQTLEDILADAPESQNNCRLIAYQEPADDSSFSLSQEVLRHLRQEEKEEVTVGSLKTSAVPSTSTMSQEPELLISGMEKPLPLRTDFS
# procedure-text: Cellular Functional Assay I: ISRE-SEAP reporter, hSTING-AQ allele
pEC50: −log10 of the molar value.
# maps each entry to its pEC50

A selection of reference data follows.
May I ask what pEC50 has been recorded for [2H]C1([2H])OC([2H])([2H])C([2H])([2H])N(CCCOc2cc(C(N)=O)cc3nc(NC(=O)c4cc(C)nn4CC)n(C/C=C/Cn4c(NC(=O)c5cc(C)nn5CC)nc5cc(C(N)=O)cnc54)c23)C1([2H])[2H] ? 6.30 to 9.00

Query: pEC50; subject: CCn1nc(C)cc1C(=O)Nc1nc2cc(C(N)=O)cnc2n1C/C=C/Cn1c(NC(=O)c2cc(C)nn2CC)nc2cc(C(N)=O)cc(C)c21.Cl.Cl.Cl.Cl 6.30 to 9.00

Field request: pEC50 | item: CCn1nc(C)cc1C(=O)Nc1nc2cc(C(N)=O)cnc2n1C/C=C/Cn1c(NC(=O)c2cc(C)nn2CC)nc2cc(C(N)=O)cc(OCCCN3CCN(C(C)=O)CC3)c21 6.30 to 9.00

Quick one: pEC50 for CCn1nc(C)cc1C(=O)Nc1nc2cc(C(N)=O)cnc2n1CCCCNC(=O)OCc1ccccc1 ? < 6.30

Request the reported pEC50 associated with CCn1nc(C)cc1C(=O)Nc1nc2cc(C(N)=O)cnc2n1C/C=C/Cn1c(NC(=O)c2cc(C)nn2CC)nc2cc(C(N)=O)cc(OCCCN3CCOCC3)c21 6.30 to 9.00

---
Could you tell me which pEC50 is on file for CCn1nc(C)cc1C(=O)Nc1nc2cc(C(N)=O)sc2n1C/C=C/Cn1c(NC(=O)c2cc(C)nn2CC)nc2cc(C(N)=O)cc(OCCOC(F)F)c21 ? < 6.30

----------
Here the recorded EC50 is given for each entry.
# target-under-test: hSTING-wt (Homo sapiens, UniProt Q86WV6)
# Sequence (Q86WV6 whole entry H232R): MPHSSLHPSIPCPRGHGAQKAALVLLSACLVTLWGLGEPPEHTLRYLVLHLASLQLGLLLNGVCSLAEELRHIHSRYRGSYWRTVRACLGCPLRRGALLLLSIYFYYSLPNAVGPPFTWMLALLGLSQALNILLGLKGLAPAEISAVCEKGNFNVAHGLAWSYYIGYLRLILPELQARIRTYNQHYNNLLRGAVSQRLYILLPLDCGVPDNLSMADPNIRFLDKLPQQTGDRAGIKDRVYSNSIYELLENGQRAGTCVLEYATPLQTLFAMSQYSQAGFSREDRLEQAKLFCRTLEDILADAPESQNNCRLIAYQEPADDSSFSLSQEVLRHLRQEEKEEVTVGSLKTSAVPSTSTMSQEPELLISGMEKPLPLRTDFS
# procedure-text: Cellular Functional Assay I: ISRE-SEAP reporter in HEK-293T-Dual Null cells transfected with hSTING-wt
# condition-summary: HEK-293T-Dual Null, hSTING-wt
Structures can show the parent of a compound that is named as a salt.

Here's what some known entries look like.
Need EC50, item CCn1nc(C)cc1C(=O)Nc1nc2cc(C(N)=O)cnc2n1CCCCNC(=O)OCc1ccccc1 [Compound G] > 0.5 µM

Can you look up the measured EC50 of CCn1nc(C)cc1C(=O)Nc1nc2cc(C(N)=O)cnc2n1C/C=C/Cn1c(NC(=O)c2cc(C)nn2CC)nc2cc(C(N)=O)cc(OCCCNC)c21 [Compound S] for me? 0.001 to 0.5 µM

Given the entry CCn1nc(C)cc1C(=O)Nc1nc2cc(C(N)=O)cnc2n1C/C=C/Cn1c(NC(=O)c2cc(C)nn2CC)nc2cc(C(N)=O)cc(OCCCN3CCOCC3)c21 [Compound T] , report its measured EC50. 0.001 to 0.5 µM

Query: EC50; subject: CCn1nc(C)cc1C(=O)Nc1nc2cc(C(N)=O)cnc2n1C/C=C/Cn1c(NC(=O)c2cc(C)nn2CC)nc2cc(C(N)=O)cc(OCCCN3CCCOCC3)c21 [Compound Z] 0.001 to 0.5 µM

Returns the measured EC50 for the input molecule. Input: CCn1nc(C)cc1C(=O)Nc1nc2cc(C(N)=O)cc(C)c2n1C/C=C/Cn1c(NC(=O)c2cnc(C)s2)nc2cc(C(N)=O)cnc21 [Compound C, Hydrochloride] 0.001 to 0.5 µM

Below: the item to evaluate.
Returns the measured EC50 for the input molecule. Input: CCn1nc(C)cc1C(=O)Nc1nc2cc(C(N)=O)sc2n1C/C=C/CNC(=O)OC(C)(C)C [Compound H] > 0.5 µM

----------
# target-under-test: mSTING-wt (Mus musculus, UniProt Q3TBT3)
# Sequence (Q3TBT3 whole entry): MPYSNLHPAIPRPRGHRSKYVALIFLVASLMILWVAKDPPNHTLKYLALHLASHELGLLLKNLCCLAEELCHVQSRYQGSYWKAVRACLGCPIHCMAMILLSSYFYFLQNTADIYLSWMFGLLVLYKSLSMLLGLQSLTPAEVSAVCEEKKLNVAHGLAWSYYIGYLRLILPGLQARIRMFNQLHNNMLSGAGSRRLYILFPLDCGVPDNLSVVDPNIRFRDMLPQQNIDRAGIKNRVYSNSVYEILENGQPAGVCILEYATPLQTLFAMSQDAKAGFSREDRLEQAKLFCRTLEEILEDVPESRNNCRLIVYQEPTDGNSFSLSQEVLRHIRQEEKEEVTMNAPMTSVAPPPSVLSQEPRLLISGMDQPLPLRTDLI
# procedure-text: Cellular Functional Assay I: ISRE-SEAP reporter in HEK-293T-Dual Null cells transfected with mouse STING
# Type: cell-based
# condition-summary: SEAP reporter, HEK-293T-Dual Null, mSTING-wt; read-out: EC50 mSTING-wt
EC50: recorded values

Lab note: need EC50 with mSTING-wt (Mus musculus, UniProt Q3TBT3) for entry CCn1nc(C)cc1C(=O)Nc1nc2cc(C(N)=O)cnc2n1C/C=C/Cn1c(NC(=O)c2cc(C)nn2CC)nc2cc(C(N)=O)cc(OCCCN(C)CCOC)c21 , please look it up. 1 to 500 nM

Query EC50 on mSTING-wt (Mus musculus, UniProt Q3TBT3) for CCn1nc(C)cc1C(=O)Nc1nc2cc(C(N)=O)cnc2n1C/C=C/CNC(=O)OCc1ccccc1 > 500 nM

Lab request: please report EC50 under test system mSTING-wt (Mus musculus, UniProt Q3TBT3) for CCn1nc(C)cc1C(=O)Nc1nc2cc(C(N)=O)sc2n1C/C=C/Cn1c(NC(=O)c2cc(C)nn2CC)nc2cc(C(N)=O)cc(OCCOC(F)F)c21 1 to 500 nM

Continuing:
Provide the documented EC50 with mSTING-wt (Mus musculus, UniProt Q3TBT3) as the system for CCn1nc(C)cc1C(=O)Nc1nc2cc(C(N)=O)cnc2n1C/C=C/Cn1c(NC(=O)c2cc(C)nn2CC)nc2cc(C(N)=O)cc(OCCCN(C)C)c21 1 to 500 nM

# query: EC50 | item CCn1nc(C)cc1C(=O)Nc1nc2cc(C(N)=O)cnc2n1C/C=C/Cn1c(NC(=O)c2cc(C)nn2CC)nc2cc(C(N)=O)cc(OCCCN3CCOCC3)c21 | system: mSTING-wt (Mus musculus, UniProt Q3TBT3) 1 to 500 nM

Quick check: EC50 on mSTING-wt (Mus musculus, UniProt Q3TBT3), item CCn1nc(C)cc1C(=O)Nc1nc2cc(C(N)=O)cnc2n1CCCCNC(=O)OC(C)(C)C ? > 500 nM

Request: EC50, test system mSTING-wt (Mus musculus, UniProt Q3TBT3), entry [2H]C1([2H])OC([2H])([2H])C([2H])([2H])N(CCCOc2cc(C(N)=O)cc3nc(NC(=O)c4cc(C)nn4CC)n(C/C=C/Cn4c(NC(=O)c5cc(C)nn5CC)nc5cc(C(N)=O)cnc54)c23)C1([2H])[2H] 1 to 500 nM

Notebook entry, mSTING-wt (Mus musculus, UniProt Q3TBT3) assay: EC50 of CCn1nc(C)cc1C(=O)Nc1nc2cc(C(N)=O)cnc2n1C/C=C/Cn1c(NC(=O)c2cc(C)nn2CC)nc2cc(C(N)=O)cc(OCCCN3CCCOCC3)c21 = ? 1 to 500 nM

----------
Overview of recorded EC50 for various compounds
# target-under-test: hSTING-Q (Homo sapiens, UniProt Q86WV6, R293Q)
# Sequence (Q86WV6 whole entry R293Q): as the sequence (Q86WV6 whole entry H232R) above, with R232H, R293Q counted along it
# procedure-text: Cellular Functional Assay I: ISRE-SEAP reporter, hSTING-Q allele

Please look up its EC50: CCn1nc(C)cc1C(=O)Nc1nc2cc(C(N)=O)cnc2n1C/C=C/Cn1c(NC(=O)c2cc(C)nn2CC)nc2cc(C(N)=O)cc(OCCCNC)c21 1 to 500 nM

What does the data say about its EC50? Entry: CCn1nc(C)cc1C(=O)Nc1nc2cc(C(N)=O)sc2n1C/C=C/Cn1c(NC(=O)c2cc(C)nn2CC)nc2cc(C(N)=O)cc(OCCOC(F)F)c21 1 to 500 nM

Quick one: EC50 for CCn1nc(C)cc1C(=O)Nc1nc2cc(C(N)=O)cnc2n1C/C=C/Cn1c(NC(=O)c2cc(C)nn2CC)nc2cc(C(N)=O)cc(OCCCN3CCOCC3)c21 ? 1 to 500 nM

Using the record for CCn1nc(C)cc1C(=O)Nc1nc2cc(C(N)=O)cnc2n1C/C=C/Cn1c(NC(=O)c2cc(C)nn2CC)nc2cc(C(N)=O)cc(OCCCNCCOC(F)F)c21 , report its EC50. 1 to 500 nM

Recorded EC50 of CCn1nc(C)cc1C(=O)Nc1nc2cc(C(N)=O)cnc2n1C/C=C/Cn1c(NC(=O)c2cc(C)nn2CC)nc2cc(C(N)=O)cc(OCCCO)c21 , please. 1 to 500 nM

Query (compound): CCn1nc(C)cc1C(=O)Nc1nc2cc(C(N)=O)cnc2n1CCCCNC(=O)OCc1ccccc1 ; field requested: EC50 > 500 nM

----------
# target-under-test: hSTING-Q (Homo sapiens, UniProt Q86WV6, R293Q)
# procedure-text: Cellular Functional Assay I: ISRE-SEAP reporter, hSTING-Q allele
readout-name: EC50

Here are 2 compounds together with their reported answers.
Can you look up the measured EC50 of CCn1nc(C)cc1C(=O)Nc1nc2cc(C(N)=O)cnc2n1C/C=C/Cn1c(NC(=O)c2cc(C)nn2CC)nc2cc(C(N)=O)cc(OCCCN3CCCOCC3)c21 [Compound Z] for me? 1 to 500 nM

State the recorded EC50 for this entry: CCn1nc(C)cc1C(=O)Nc1nc2cc(C(N)=O)cnc2n1C/C=C/Cn1c(NC(=O)c2cc(C)nn2CC)nc2cc(C(N)=O)cc(OCCCN3CCN(C(C)=O)CC3)c21 [Compound X] 1 to 500 nM

Please find the next compound below.
Requested field: EC50. Item: CCn1nc(C)cc1C(=O)Nc1nc2cc(C(N)=O)cnc2n1C/C=C/Cn1c(NC(=O)c2cc(C)nn2CC)nc2cc(C(N)=O)cc(OCCCN(C)CCOC)c21 [Compound V] 1 to 500 nM
